Where do the numbers come from? From patent US20180258158A1.

Hi there, I'd appreciate the recorded koff for every entry that follows.
Molecular target: T1, mouse serum albumin (MSA), full length (mouse, UniProt P07724 25-608)
T1 construct: mature; Immobilized on CM5 chip (SPR) or coated on plates (ELISA); also called mouse albumin; murine serum albumin
Experiment: SPR off-rate, immobilized MSA, 500 nM Adnectin, 25 C
Lab note: write values as number then unit, every time.

koff recorded for this binder, ADX_6727_G01 (L41A) (designed binder, Full His6-tagged entry) MGVSDVPRDLEVVAATPTSLLISWDAPAVTVRYYRITYGREVQKYSDLGPAYIYQEFTVPGSKSTATISGLKPGVDYTITVYAVTGSGESPASSKPISINYRTEIDKPSQHHHHHH , is 0.00639 s⁻¹

koff recorded for this binder, ADX_6727_D01 (K85T) (designed binder, Full His6-tagged entry) MGVSDVPRDLEVVAATPTSLLISWDAPAVTVRYYRITYGREVQKYSDLGPLYIYQEFTVPGSKSTATISGLKPGVDYTITVYAVTGSGESPASSTPISINYRTEIDKPSQHHHHHH , is 0.000433 s⁻¹

koff recorded for this binder, ADX_6727_D06 (Y44A/K85S) (designed binder, Full His6-tagged entry) MGVSDVPRDLEVVAATPTSLLISWDAPAVTVRYYRITYGREVQKYSDLGPLYIAQEFTVPGSKSTATISGLKPGVDYTITVYAVTGSGESPASSSPISINYRTEIDKPSQHHHHHH , is 0.00622 s⁻¹

koff recorded for this binder, ADX_6727_B05 (I43S/K85T) (designed binder, Full His6-tagged entry) MGVSDVPRDLEVVAATPTSLLISWDAPAVTVRYYRITYGREVQKYSDLGPLYSYQEFTVPGSKSTATISGLKPGVDYTITVYAVTGSGESPASSTPISINYRTEIDKPSQHHHHHH , is 0.00781 s⁻¹

koff recorded for this binder, ADX_6727_C03 (Y35S) (designed binder, Full His6-tagged entry) MGVSDVPRDLEVVAATPTSLLISWDAPAVTVRYYRITYGREVQKSSDLGPLYIYQEFTVPGSKSTATISGLKPGVDYTITVYAVTGSGESPASSKPISINYRTEIDKPSQHHHHHH , is 0.00121 s⁻¹

koff recorded for this binder, ADX_6727_C01 (K85A) (designed binder, Full His6-tagged entry) MGVSDVPRDLEVVAATPTSLLISWDAPAVTVRYYRITYGREVQKYSDLGPLYIYQEFTVPGSKSTATISGLKPGVDYTITVYAVTGSGESPASSAPISINYRTEIDKPSQHHHHHH , is 0.000509 s⁻¹

koff recorded for this binder, ADX_6727_H02 (I43S) (designed binder, Full His6-tagged entry) MGVSDVPRDLEVVAATPTSLLISWDAPAVTVRYYRITYGREVQKYSDLGPLYSYQEFTVPGSKSTATISGLKPGVDYTITVYAVTGSGESPASSKPISINYRTEIDKPSQHHHHHH , is 0.00977 s⁻¹

koff recorded for this binder, ADX_6727_D10 (Q33D/K85T) (designed binder, Full His6-tagged entry) MGVSDVPRDLEVVAATPTSLLISWDAPAVTVRYYRITYGREVDKYSDLGPLYIYQEFTVPGSKSTATISGLKPGVDYTITVYAVTGSGESPASSTPISINYRTEIDKPSQHHHHHH , is 0.0608 s⁻¹
